Ref: ChEMBL document CHEMBL1926657

- experimental.target: Prostaglandin G/H synthase 1 (Mus musculus, UniProt P22437)
- Sequence (P22437 whole entry): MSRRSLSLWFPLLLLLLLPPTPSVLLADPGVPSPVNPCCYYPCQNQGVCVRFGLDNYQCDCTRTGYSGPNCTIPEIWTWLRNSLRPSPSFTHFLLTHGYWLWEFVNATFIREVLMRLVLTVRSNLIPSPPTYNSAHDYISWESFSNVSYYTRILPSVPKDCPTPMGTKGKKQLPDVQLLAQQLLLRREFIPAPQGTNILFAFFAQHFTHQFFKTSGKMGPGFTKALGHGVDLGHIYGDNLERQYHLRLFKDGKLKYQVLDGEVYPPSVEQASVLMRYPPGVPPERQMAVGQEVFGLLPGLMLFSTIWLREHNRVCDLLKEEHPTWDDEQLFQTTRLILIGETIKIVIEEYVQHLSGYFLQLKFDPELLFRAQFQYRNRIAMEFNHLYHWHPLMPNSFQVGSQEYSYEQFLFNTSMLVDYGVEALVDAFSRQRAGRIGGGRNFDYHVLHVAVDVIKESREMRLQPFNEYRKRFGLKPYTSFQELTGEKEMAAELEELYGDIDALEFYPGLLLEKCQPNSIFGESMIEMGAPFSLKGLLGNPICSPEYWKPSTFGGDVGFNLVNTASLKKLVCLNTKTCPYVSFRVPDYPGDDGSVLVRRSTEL
value.type: pIC50
Value format note: pIC50 is -log10 of concentration (mol/L); just state the number.

// pIC50 lookup, key: Cc1c(N)c(=O)n(-c2ccccc2)n1C [AMPYRONE]
3.00
